Listed next: entries and their corresponding pKd.
target_of_assay: JAK2 JH2 WT (V536-D812) [W659A, W777A, F794H solubilizing mutations] (Homo sapiens, UniProt O60674, F794H/W659A/W777A)
Construct: **JAK2 JH2 WT (V536-D812) [W659A, W777A, F794H solubilizing mutations]; C-thrombin-avi-His6; thrombin cleavage site (C); His6 (C); purchased Biortus
Sequence (O60674 536-812 W659A/W777A/F794H): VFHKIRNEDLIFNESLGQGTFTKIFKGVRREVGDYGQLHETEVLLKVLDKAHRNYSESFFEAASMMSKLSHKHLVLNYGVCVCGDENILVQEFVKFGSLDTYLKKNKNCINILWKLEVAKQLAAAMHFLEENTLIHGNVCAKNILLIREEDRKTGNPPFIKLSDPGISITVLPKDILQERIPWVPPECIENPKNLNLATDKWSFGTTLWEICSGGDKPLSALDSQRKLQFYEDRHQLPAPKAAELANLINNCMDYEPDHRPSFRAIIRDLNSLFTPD
experimental_details: Surface Plasmon Resonance (SPR) binding assay, JAK2 JH2 domain
pKd: −log10 of the molar value.

The cases that follow already have their pKd on record.
> print(dat)
                                   compound         result
1  CNC(=O)c1nnc(NC(=O)C2CC2)cc1Nc1cccc(-c2cn([C@@H]3CN(Cc4cccc(C)n4)[C@H]3C)nn2)c1OC (stereo in doubt)  8.00 to 11.00
2  CNC(=O)c1nnc(NC(=O)C2CC2)cc1Nc1cccc(-c2cnn(C3CN(Cc4cccc(C=O)n4)C3)c2)c1OC  8.00 to 11.00
3  CNC(=O)c1nnc(NC(=O)C2CC2)cc1Nc1ccc(C)c(-c2ccc(C(=O)N(C)Cc3cn(C)nc3C)cn2)c1OC  8.00 to 11.00
4  CNC(=O)c1nnc(NC(=O)C2CC2)cc1Nc1cccc(-c2cnn(C3CN(Cc4cccc(OC(F)F)n4)C3)c2)c1OC  8.00 to 11.00
5  CNC(=O)c1nnc(NC(=O)C2CC2)cc1Nc1cccc(-c2ccc(C(=O)N(C)Cc3ncc(COC)s3)nc2)c1OC  8.00 to 11.00
6  CNC(=O)c1nnc(NC(=O)C2CC2)cc1Nc1cccc(-c2cnn(C3CN(Cc4cccc(C(C)=O)n4)C3)c2)c1OC  8.00 to 11.00

Ask | Recorded pKd for CNC(=O)c1nnc(NC(=O)C2CC2)cc1Nc1cccc(-c2cnn(C3CN(C(C)c4cccc(C#N)n4)C3)c2)c1OC (racemic) , please?
Reply | 8.00 to 11.00

Ask | Return reported pKd; argument: CNC(=O)c1nnc(NC(=O)C2CC2)cc1Nc1cccc(-c2ccc(C(=O)N(C)C[C@@H]3CCS(=O)(=O)C3)nc2)c1OC (single isomer, unassigned)
Reply | 7.30 to 8.00

Ask | Could you share which pKd value was measured for CNC(=O)c1nnc(NC(=O)C2CC2)cc1Nc1cccc(-c2cnn(C3CN(Cc4cccc(P(C)(C)=O)n4)C3)c2)c1OC ?
Reply | 8.00 to 11.00

Ask | What measured pKd goes with CNC(=O)c1nnc(NC(=O)C2CC2)cc1Nc1cccc(-c2ccc(C(=O)N(C)Cc3scnc3C)nc2)c1OC ?
Reply | 8.00 to 11.00

Ask | What pKd value was documented for this compound, CNC(=O)c1nnc(NC(=O)C2CC2)cc1Nc1cccc(-c2cc(C3CN(Cc4ccccn4)C3)n(C)n2)c1OC ?
Reply | 6.30 to 7.30

Ask | // returns reported pKd for input CNC(=O)c1nnc(NC(=O)C2CC2)cc1Nc1cccc(-c2ccc(C(=O)N(C)Cc3cc(P(C)(C)=O)ccn3)nc2)c1OC
Reply | 8.00 to 11.00

Ask | Fill blank: measured pKd of the compound CNC(=O)c1nnc(NC(=O)C2CC2)cc1Nc1cccc(-c2cnn(C3CN(Cc4cccc(Br)n4)C3)c2)c1OC is ____.
Reply | 8.00 to 11.00

Ask | # pKd lookup, item CNC(=O)c1nnc(NC(=O)C2CC2)cc1Nc1cccc(-c2cnn(C3CN(Cc4cccn(C)c4=O)C3)c2)c1OC
Reply | 8.00 to 11.00

Ask | Given CNC(=O)c1nnc(NC(=O)C2CC2)cc1Nc1ccc(Cl)c(-c2ccc(C(=O)N(C)Cc3cc(C#N)ccn3)cc2)c1OC , state its recorded pKd.
Reply | 8.00 to 11.00

Ask | What does the record list as pKd for CNC(=O)c1nnc(NC(=O)C2CC2)cc1Nc1cccc(-c2ccc(C(=O)N(C)Cc3cc(C#N)cnn3)nc2)c1OC ?
Reply | 8.00 to 11.00

Ask | Data request, read-out pKd, for CNC(=O)c1nnc(NC(=O)C2CC2)cc1Nc1cccc(-c2cnn(C3CN(Cc4ccc(C#N)cn4)C3)c2)c1OC
Reply | 7.30 to 8.00

Ask | GET /values?readout=pKd&item= COc1c(Nc2cc(NC(=O)C3CC3)nnc2C(N)=O)cccc1-c1ccc(C(=O)N(C)Cc2cc(C#N)ccn2)nc1
Reply | 8.00 to 11.00

Ask | Quick one: pKd of CNC(=O)c1nnc(NC(=O)C2CC2)cc1Nc1cccc(-c2cnn(C3CN(Cc4cccc(C5(C)COC5)n4)C3)c2)c1OC ?
Reply | 8.00 to 11.00

Ask | pKd for CCOc1cccc(CN2CC(c3ccc(-c4cccc(Nc5cc(NC(=O)C6CC6)nnc5C(=O)NC)c4OC)cn3)C2)n1 ?
Reply | 6.30 to 7.30

Ask | Form field: reported pKd of CNC(=O)c1nnc(NC(=O)C2CC2)cc1Nc1cccc(-c2cnn([C@H]3C[C@@H](N(C)c4ccccn4)C3)c2)c1OC
Reply | 8.00 to 11.00

Ask | Requested read-out: pKd. Entry: CNC(=O)c1nnc(NC(=O)C2CC2)cc1Nc1cccc(-c2cn(C3CN(Cc4cccc(C#N)n4)C3)nc2C(C)O)c1OC (centres unmarked)
Reply | 8.00 to 11.00

Ask | What pKd value was documented for this compound, CNC(=O)c1nnc(NC(=O)C2CC2)cc1Nc1cccc(-c2cnn(C3CN(Cc4cccc(C(=O)N5CCC(C(F)(F)F)C5)n4)C3)c2)c1OC (centres unmarked) ?
Reply | 8.00 to 11.00

Ask | Query: pKd; subject: CNC(=O)c1nnc(NC(=O)C2CC2)cc1Nc1cccc(-c2cnn(C3CN(Cc4cccc(C(C)(C)CO)n4)C3)c2)c1OC
Reply | 8.00 to 11.00

Ask | // query pKd value for entry CNC(=O)c1nnc(NC(=O)C2CC2)cc1Nc1cccc(-c2ccc(C3CN(Cc4ccc(OC5CC5)cn4)C3)nc2)c1OC
Reply | 6.30 to 7.30

Ask | Which pKd is listed for CNC(=O)c1nnc(NC(=O)C2CC2)cc1Nc1ccc(C)c(-c2ccc(C3CN(Cc4cc(C#N)ccn4)C3)nc2)c1OC ?
Reply | 7.30 to 8.00

* * *

target_of_assay: JAK2 JH2 WT (V536-D812) [W659A, W777A, F794H solubilizing mutations] (Homo sapiens, UniProt O60674, F794H/W659A/W777A)
Construct: **JAK2 JH2 WT (V536-D812) [W659A, W777A, F794H solubilizing mutations]; C-thrombin-avi-His6; thrombin cleavage site (C); His6 (C); purchased Biortus
experimental_details: Surface Plasmon Resonance (SPR) binding assay, JAK2 JH2 domain
recorded_conditions: SPR, JAK2 JH2 domain
pKd: −log10 of the molar value.
Documented pKd across a set of compounds

Worked examples follow.
> print(dat)
                                   compound         result
1  CNC(=O)c1nnc(NC(=O)C2CC2)cc1Nc1cccc(-c2ccc(C(=O)N(C)Cc3cncc(C#N)c3)nc2)c1OC  8.00 to 11.00
2  CNC(=O)c1nnc(NC(=O)C2CC2)cc1Nc1cccc(-c2ccc(C(=O)N(C)Cc3nccs3)nc2)c1OC  8.00 to 11.00
3  CNC(=O)c1nnc(NC(=O)C2CC2)cc1Nc1cccc(-c2ccc(C(=O)N(C)CC3=NO[C@@H]4CCCC[C@H]34)nc2)c1OC (single isomer, unassigned)  8.00 to 11.00
4  CNC(=O)c1nnc(NC(=O)C2CC2)cc1Nc1cccc(-c2cnn(C3CN(Cc4cccc(F)c4F)C3)c2)c1OC   7.30 to 8.00
5  CNC(=O)c1nnc(NC(=O)C2CC2)cc1Nc1cccc(-c2ccc(NC(=O)Cc3cccn(C)c3=O)cc2)c1OC  8.00 to 11.00
6  CNC(=O)c1nnc(NC(=O)C2CC2)cc1Nc1cccc(-c2ccc(C3CN(Cc4ccccn4)C3)nc2)c1OC  8.00 to 11.00
7  CNC(=O)c1nnc(NC(=O)C2CC2)cc1Nc1cccc(-c2cnn([C@H]3C[C@@H]([C@@H](O)c4ccccn4)C3)c2)c1OC (single isomer, unassigned)  8.00 to 11.00
8  CNC(=O)c1nnc(NC(=O)C2CC2)cc1Nc1cccc(-c2cnn(C3(CC#N)CN(Cc4ccccn4)C3)c2)c1OC   7.30 to 8.00

Ask | Which measured pKd value corresponds to CNC(=O)c1nnc(NC(=O)C2CC2)cc1Nc1cccc(-c2ccc(C(=O)N(C)Cc3ccccc3C(C)C)nc2)c1OC ?
Reply | 7.30 to 8.00

Ask | # get_value(readout='pKd', item= CNC(=O)c1nnc(NC(=O)C2CC2)cc1Nc1cccc(-c2ccc(C(=O)N(Cc3cccn(C)c3=O)CC(F)F)nc2)c1OC )
Reply | 8.00 to 11.00

Ask | // pKd lookup, key: CNC(=O)c1nnc(NC(=O)C2CC2)cc1Nc1cccc(-c2ccc(C(=O)N(C)Cc3cn(C)nn3)nc2)c1OC
Reply | 8.00 to 11.00

Ask | // returns reported pKd for input CNC(=O)c1nnc(NC(=O)C2CC2)cc1Nc1cccc(-c2ccc(C(=O)N(C)Cc3c(C)nn(C)c3C)nc2)c1OC
Reply | 8.00 to 11.00

Ask | Field request: pKd | item: CNC(=O)c1nnc(NC(=O)C2CC2)cc1Nc1cccc(-c2ccc(C(=O)N(C)Cc3ccc(C)cn3)nc2)c1OC
Reply | 8.00 to 11.00
